molecular target: Leucine aminopeptidase (Plasmodium falciparum 3D7); assay: P. falciparum M17LAP inhibitors, primary screen, biochemical, fluorogenic H-Leu-NHMec substrate, 1536-well (AID 1619); format: functional
Sequence (Q8IL11 whole entry): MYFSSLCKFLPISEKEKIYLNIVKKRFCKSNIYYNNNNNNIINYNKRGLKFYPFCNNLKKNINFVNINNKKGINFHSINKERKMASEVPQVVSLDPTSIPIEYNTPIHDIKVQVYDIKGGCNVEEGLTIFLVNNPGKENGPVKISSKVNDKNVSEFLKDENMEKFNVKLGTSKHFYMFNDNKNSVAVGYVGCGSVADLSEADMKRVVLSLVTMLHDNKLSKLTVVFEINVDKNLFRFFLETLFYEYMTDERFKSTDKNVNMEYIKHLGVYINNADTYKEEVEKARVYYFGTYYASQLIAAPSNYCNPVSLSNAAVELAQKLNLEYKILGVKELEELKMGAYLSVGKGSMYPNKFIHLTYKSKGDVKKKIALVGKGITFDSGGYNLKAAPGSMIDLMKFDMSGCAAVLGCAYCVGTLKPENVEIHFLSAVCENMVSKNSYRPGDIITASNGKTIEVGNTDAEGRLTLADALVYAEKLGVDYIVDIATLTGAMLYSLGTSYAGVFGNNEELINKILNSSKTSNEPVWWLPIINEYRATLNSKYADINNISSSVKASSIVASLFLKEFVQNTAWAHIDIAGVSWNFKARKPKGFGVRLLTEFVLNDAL
Active and inactive are the calls of the source. No rule for the calls is given here.
Quantity Name: IC50

Some solved cases for reference:
[[record]]
molecule = "COc1ccc(NC(=O)CC2COc3ccccc3O2)c(OC)c1 (stereo unspecified)"
result = "7.18 µM (active)"

[[record]]
molecule = "O=C(N/N=C/c1coc2ccccc2c1=O)c1cccc([N+](=O)[O-])c1"
result = "35.2 µM (active)"


Q) Name the recorded IC50 for CCOC(=O)c1c(-c2ccc(C)cc2)csc1NC(=O)C1CC=CCC1C(=O)O (stereo unspecified) .
A) 4.8 µM (active)

Q) Please look up its IC50: COc1ccc(/C=N/Nc2ccc(C(=O)O)cc2)cc1Br
A) 23.4 µM (active)

Q) Can you look up the measured IC50 of COc1cccc(/C=N/NC(=S)Nc2cccc(C(=O)O)c2)c1 for me?
A) 15.7 µM (active)

Q) Which measured IC50 value corresponds to C/C(=C\c1ccco1)C1C(C#N)=C(N)Oc2[nH]nc(-c3ccc(C)cc3)c21 (stereo unspecified) ?
A) 132 µM (active)
